Listed compounds paired with reported inhibition (viability loss, TRAIL sensitization)
- Measurement protocol: viability loss with TRAIL in NB7+C8 cells, primary screen, TRAIL sensitizer project, cell-based, ATPlite luminescence (AID 624354)
- Condition parameters: at 10 µM, active compounds read high
Among all 360,000 compounds or so, about 3,800 (1.1%) were called active. The full list was thinned out, with actives kept by preference.
Value type: inhibition (viability loss, TRAIL sensitization) (%)

Compound: N=c1c2c3c(sc2nc2n1CCCCC2)CCCC3
Numeric readout: 0.553
--
Compound: CC(=O)Nc1ccc(SCC(=O)NC(=O)c2ccc(Cl)cc2)cc1
Numeric readout: -7.06
--
Compound: COc1cc(C)c(CN2CCN(C(=O)CCC(=O)c3ccc(C)s3)CC2)cc1OC
Numeric readout: 16.8
--
Compound: O=S(=O)(Cc1ccccc1)c1nc2ccccc2n1Cc1ccccn1
Numeric readout: -8.41
--
Compound: NNC(=O)C1CCCn2c1nc1sc3c(c1c2=O)CCCC3 (centres undefined)
Numeric readout: 55.9
--
Compound: CNc1nc(SC)nc(N(C#N)CC(=O)OC)n1
Numeric readout: -0.928
--
Compound: Clc1ccc(-c2cc(-c3ccccn3)on2)c(Cl)c1
Numeric readout: 87.7
--
Compound: Cc1ccc(S(=O)(=O)N[C@H]2CCC[C@@H]2O)cc1
Numeric readout: 1.92
--
Compound: Clc1ccc(COn2c(-c3ccc(Cl)cc3Cl)nc3ncccc32)cc1
Numeric readout: 7.77
--
Compound: CN(CC(=O)Nc1c(Cl)cccc1Cl)C(=O)c1ccncc1
Numeric readout: -1.41
--
Compound: CCCCN1CC(N2CCN(Cc3cccc(C)c3)CC2)CS1(=O)=O (centres undefined)
Numeric readout: 4.54
--
Compound: Cn1c(NN)nc2sc3c(c2c1=O)CCC3
Numeric readout: -10.7
--
Compound: COc1ccc(N(C(=O)c2ccc(C)cc2)S(=O)(=O)c2cccs2)cc1
Numeric readout: -2.28
--
Compound: Cc1ccc(N2CCN(c3ccc(C)cc3)C2c2ccccn2)cc1
Numeric readout: -11.7
--
Compound: CNc1cncc(-c2cccc(C(=O)N3CCOCC3)c2)n1
Numeric readout: -18.4
--
Compound: COc1cccc(-c2sc3ccc(OC)cc3c2-c2ccc(OCCN3CCCCC3)cc2)c1
Numeric readout: 12.9
--
Compound: C=CCNC(=O)c1ccc2c3n(nc2c1)-c1ccc(C)cc1CO3
Numeric readout: 47.7
--
Compound: CCCOc1ccc(Cc2c(Cl)nc(SC)nc2NC)cc1
Numeric readout: 31.2
--
Compound: Cn1cncc1C#Cc1c(-c2ccsc2)sc2ccccc12
Numeric readout: 0.155
--
Compound: COc1ccc2sc(-c3ccc(S(C)(=O)=O)cc3)c(C#Cc3cncn3C)c2c1
Numeric readout: 54.7
--
Compound: Cc1ccc(NC(=O)c2oc3ccccc3c2C)c([N+](=O)[O-])c1
Numeric readout: 3.18
--
Compound: O=C(O)CC(SCC(=O)Nc1ccc(Br)cc1)C(=O)O (centres undefined)
Numeric readout: -3.72
--
Compound: O=C(NCc1cccnc1)c1ccccc1NC(=O)c1c(F)cccc1F
Numeric readout: -13.9
--
Compound: Fc1ccc(-c2ccc(CNCc3ccccn3)o2)cc1Cl
Numeric readout: 4.36

====

Listed molecules paired with reported inhibition (viability loss, TRAIL sensitization)
- Measurement protocol: viability loss with TRAIL in NB7+C8 cells, primary screen, TRAIL sensitizer project, cell-based, ATPlite luminescence (AID 624354)
- Condition parameters: at 10 µM, active compounds read high
The campaign covered roughly 360,000 compounds. About 3,800 (1.1%) were called active. Many of the other results were omitted from the sample, so actives are more common in it than they were.
Value type: inhibition (viability loss, TRAIL sensitization)

Molecule: CC1(C(=O)NS(=O)(=O)Cc2cccc(Cl)c2)CCN1C(=O)Cc1ccc(Cl)cc1Cl (stereo unspecified)
Result: -0.832% (inactive)
--
Molecule: O=C(Cc1ccccc1)N1CCN(S(=O)(=O)c2ccc([N+](=O)[O-])cc2)CC1
Result: -7.16% (inactive)
--
Molecule: C[C@@H]1CN([C@H](C)CO)C(=O)CCCn2cc(nn2)CO[C@H]1CN(C)S(=O)(=O)c1ccc(Oc2ccccc2)nc1
Result: 2.33% (inactive)
--
Molecule: O=C(Nc1nnc(-c2ccc(F)cc2)s1)c1c(F)cccc1Cl
Result: 1.33% (inactive)
--
Molecule: Cc1ccc(CS(=O)(=O)c2ncc(Cl)c(C(=O)Nc3nnc(C)s3)n2)cc1
Result: 96.7% (active)
--
Molecule: S=c1[nH]nc(/C=C/c2ccccc2)o1
Result: 0.666% (inactive)
--
Molecule: CN(C(=O)Nc1ccc(Cl)cc1)n1cnc2ccccc2c1=O
Result: 7.39% (inactive)
--
Molecule: Cc1cccc(CS(=O)(=O)c2ncc(Cl)c(C(=O)Nc3ccc(F)cc3)n2)c1
Result: 36% (inactive)
--
Molecule: CC(=O)Nc1ccc(C(=O)NNC(=O)CCCCC(=O)NNC(=O)c2ccc(NC(C)=O)cc2)cc1
Result: -1.99% (inactive)
--
Molecule: Cc1cc(Cl)c2oc(C(=O)N3CCC(O)(c4ccccc4)CC3)c(C)c2c1
Result: 12.6% (inactive)
--
Molecule: COc1ccc(-n2nnnc2SCC(=O)c2ccc(OC)c(OC)c2)cc1
Result: -16.3% (inactive)
--
Molecule: O=c1oc(-c2ccccc2NS(=O)(=O)c2ccc(Cl)cc2)nc2ccccc12
Result: 6.47% (inactive)
--
Molecule: O=[N+]([O-])c1ccc(N=NNc2ccc([N+](=O)[O-])cc2)cc1
Result: 13.8% (inactive)
--
Molecule: CCN(CC)CCN(C)C(c1ccnc2ccccc12)c1nnnn1-c1ccc2c(c1)OCCO2 (stereo unspecified)
Result: -12.3% (inactive)
--
Molecule: CCOC(=O)N1CCN(C(=O)COC(=O)c2cccc(S(C)(=O)=O)c2)CC1
Result: -12.4% (inactive)
--
Molecule: CCCC(=O)Nc1ccc(C(=O)N/N=C/c2ccc[nH]2)cc1
Result: 93.8% (active)
--
Molecule: CC(=O)Nc1ccc(C(=O)/C=C/c2ccc[nH]2)cc1
Result: 1.89% (inactive)
--
Molecule: COc1ccc(-n2nnnc2SCC(=O)NCc2cccs2)cc1
Result: 1.36% (inactive)
--
Molecule: O=C(CNC(=O)c1cc(=O)[nH]c2ccccc12)Nc1ccc(F)c(F)c1
Result: -6.89% (inactive)
--
Molecule: O=C(CC(O)(C(F)(F)F)C(F)(F)F)Nc1ccc(Cl)c(Cl)c1
Result: 62.6% (active)
--
Molecule: O=c1oc(/C=C/c2ccccc2)nc2ccccc12
Result: 77.8% (active)
